FYI, the data here is from patent US20260365670A1.

- TEST_SYSTEM: EGFR Exon19Del (Homo sapiens, UniProt P00533, DEL746-750)
- Construct: purchased Carna Bio
- Sequence (P00533 with tags, fused parts or gaps DEL746-750 limits assumed): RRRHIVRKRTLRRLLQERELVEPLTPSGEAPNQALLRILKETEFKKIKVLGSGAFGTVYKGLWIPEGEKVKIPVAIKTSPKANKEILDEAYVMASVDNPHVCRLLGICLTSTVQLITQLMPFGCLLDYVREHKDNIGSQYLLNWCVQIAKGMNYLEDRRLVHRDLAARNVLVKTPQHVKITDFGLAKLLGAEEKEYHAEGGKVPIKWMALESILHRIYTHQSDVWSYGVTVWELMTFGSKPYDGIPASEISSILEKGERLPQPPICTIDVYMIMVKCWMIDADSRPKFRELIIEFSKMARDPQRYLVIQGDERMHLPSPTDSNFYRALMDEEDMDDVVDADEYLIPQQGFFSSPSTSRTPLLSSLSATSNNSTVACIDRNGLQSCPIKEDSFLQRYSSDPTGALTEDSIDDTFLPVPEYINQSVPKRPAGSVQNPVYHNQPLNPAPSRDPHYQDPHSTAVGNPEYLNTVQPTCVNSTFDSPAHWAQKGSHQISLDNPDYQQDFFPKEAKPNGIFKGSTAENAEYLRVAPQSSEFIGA
- ASSAY_DETAILS: Inhibition of EGFR Exon19Del biochemical enzymatic activity (HTRF)
- CONDITION_LABEL: EGFR Del19, 1 mM ATP, 1 h, room temperature, read-out: IC50 @Del19
Categorize each record by its IC50 using low end: < 4 nM; middle: ≥ 4 nM and < 300 nM; high end: ≥ 300 nM

Worked examples follow.
INSERT INTO measurements (compound, class_name) VALUES
  ('CN(C)C1CCN(c2ccc3nc4n(c3c2)C23CCC(CN(CCOc5c(cnn5C)-c5cc(cn(C)c5=O)C(=O)N4)C2)C3)CC1(F)F (single isomer, unassigned) [Example A97A]', 'high end'),
  ('CN1CCCC12CN(c1ccc3nc4n(c3c1)C13CCC(CN(CCOc5c(cnn5C)-c5cc(cn(C)c5=O)C(=O)N4)C1)C3)C2 (single isomer, unassigned) [Example A76B]', 'middle'),
  ('CN1CCC2(C1)CN(c1ccc3nc4n(c3c1)C13CCC(CN(CCOc5c(cnn5C)-c5cc(cn(C)c5=O)C(=O)N4)C1)C3)C2 (single isomer, unassigned) [Example A78B]', 'low end'),
  ('CN1CCC2CN(c3ccc4nc5n(c4c3)C34CCC(CN(CCOc6c(cnn6C)-c6cc(cn(C)c6=O)C(=O)N5)C3)C4)CC21 (single isomer, unassigned) [Example A79B]', 'middle'),
  ('CN1CCC2(CCN(c3ccc4nc5n(c4c3)C34CCC(CN(CCOc6c(cnn6C)-c6cc(cn(C)c6=O)C(=O)N5)C3)C4)C2)C1 (single isomer, unassigned) [Example A81A]', 'high end'),
  ('CN1CCC2(CC1)CCN(c1ccc3nc4n(c3c1)C13CCC(CN(CCOc5c(cnn5C)-c5cc(cn(C)c5=O)C(=O)N4)C1)C3)C2 (single isomer, unassigned) [Example A88B]', 'low end'),
  ('Cc1cc2cc(n1)-c1cnn(C)c1OCCN1CC3CCC(CC3)(C1)n1c(nc3ccc(N4CCOCC4)cc31)NC2=O', 'middle'),
  ('Cn1ncc2c1OCCN1CCCCC(C)(C1)n1c(nc3ccc(N4CCOCC4)cc31)NC(=O)c1cc-2c(=O)n(C)c1 (centres unmarked)', 'high end');

Q: Tag the class for C[C@@H]1CCCOc2cc(F)c(F)cc2-c2cc(cn(C)c2=O)C(=O)Nc2nc3ccc(N4CCN(C)CC4)cc3n2C1
A: middle

Q: Tag the class for CN(C)[C@@H]1CCN(c2ccc3nc4n(c3c2)C23CCC(CN(CCOc5c(cnn5C)-c5cc(cn(C)c5=O)C(=O)N4)C2)C3)C1 (single isomer, unassigned) [Example A66D]
A: low end
